Where do these numbers come from? They come from ChEMBL document CHEMBL1143997.

This listing pairs molecules with measured Ki.
# EXPERIMENTAL SYSTEM: Norepinephrine transporter (Rattus norvegicus)
# Sequence (Q9WTR4 whole entry): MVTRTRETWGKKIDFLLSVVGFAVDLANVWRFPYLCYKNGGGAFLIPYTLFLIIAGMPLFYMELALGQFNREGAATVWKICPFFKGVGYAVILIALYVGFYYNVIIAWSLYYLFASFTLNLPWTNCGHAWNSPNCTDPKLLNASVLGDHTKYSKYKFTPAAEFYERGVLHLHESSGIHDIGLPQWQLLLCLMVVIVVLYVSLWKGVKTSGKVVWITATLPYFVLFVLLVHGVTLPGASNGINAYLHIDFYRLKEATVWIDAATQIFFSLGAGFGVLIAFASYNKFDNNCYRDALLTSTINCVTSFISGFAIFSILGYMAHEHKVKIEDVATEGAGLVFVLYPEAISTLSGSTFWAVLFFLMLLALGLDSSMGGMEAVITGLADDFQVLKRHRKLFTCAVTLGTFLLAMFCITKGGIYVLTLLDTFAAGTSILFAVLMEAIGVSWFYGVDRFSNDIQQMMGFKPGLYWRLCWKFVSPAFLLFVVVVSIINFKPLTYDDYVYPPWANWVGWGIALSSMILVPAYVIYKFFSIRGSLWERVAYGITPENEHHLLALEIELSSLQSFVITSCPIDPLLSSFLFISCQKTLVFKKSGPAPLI
# ASSAY REMARKS: Inhibition of [3H]NE uptake in NET in rat cerebral cortex
Number only, in nM; omit the unit.

As a guide, the following entries are already answered.
| STRUCTURE SMILES | OUTCOME MEASURE | REPORTED VALUE |
| --- | --- | --- |
| O[C@@H](CN[C@H]1CC[C@@H](C(c2ccccc2)c2ccccc2)NC1)c1ccc(F)cc1 | Ki | 1440 |
| O[C@H](CN1CCN2C[C@@H]1CC[C@H]2C(c1ccccc1)c1ccccc1)c1ccccc1 | Ki | 1730 |
| O[C@@H](CN[C@H]1CC[C@@H](C(c2ccccc2)c2ccccc2)NC1)Cc1ccccc1 | Ki | 170 |

Could you share which Ki value was measured for "O[C@@H](CN1CCN2C[C@@H]1CC[C@H]2C(c1ccccc1)c1ccccc1)c1ccccc1" ? 954

Could you share which Ki value was measured for "O[C@H](CCN1CCN2C[C@@H]1CC[C@H]2C(c1ccccc1)c1ccccc1)c1ccc(F)cc1" ? 388

---

# EXPERIMENTAL SYSTEM: Sodium-dependent dopamine transporter (Rattus norvegicus) (UniProt P23977)
# ASSAY REMARKS: Ratio of [3H]DA uptake to [3H]WIN-binding to DAT in rat brain
# Format: tissue-based
So basically, if Ratio Ki comes in under 0.6 it's Criterion met, and if it's 0.6 or more it's Criterion not met.

I wonder whether "O[C@@H](CCN1CCN2C[C@@H]1CC[C@H]2C(c1ccccc1)c1ccccc1)c1ccc(F)cc1" has Ratio Ki below 0.6. Can you tell? Criterion not met

---

# EXPERIMENTAL SYSTEM: Sodium-dependent dopamine transporter (Rattus norvegicus, UniProt P23977)
# Sequence (P23977 whole entry): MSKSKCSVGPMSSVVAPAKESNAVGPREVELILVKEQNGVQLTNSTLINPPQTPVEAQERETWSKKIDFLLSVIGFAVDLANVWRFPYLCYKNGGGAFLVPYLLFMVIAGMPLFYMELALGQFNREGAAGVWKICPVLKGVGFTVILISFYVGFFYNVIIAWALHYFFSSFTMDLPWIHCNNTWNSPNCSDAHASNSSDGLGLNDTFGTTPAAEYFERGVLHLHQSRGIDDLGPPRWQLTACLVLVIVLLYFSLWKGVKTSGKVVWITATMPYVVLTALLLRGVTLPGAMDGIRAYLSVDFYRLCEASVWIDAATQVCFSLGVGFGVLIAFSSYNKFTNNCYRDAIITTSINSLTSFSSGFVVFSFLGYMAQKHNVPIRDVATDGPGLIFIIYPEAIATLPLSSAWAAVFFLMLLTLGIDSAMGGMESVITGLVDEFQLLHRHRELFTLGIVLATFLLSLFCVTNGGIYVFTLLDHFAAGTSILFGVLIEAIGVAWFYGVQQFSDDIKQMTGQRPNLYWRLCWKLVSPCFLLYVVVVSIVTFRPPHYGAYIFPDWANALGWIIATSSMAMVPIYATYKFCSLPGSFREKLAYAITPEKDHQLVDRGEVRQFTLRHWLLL
# ASSAY REMARKS: Displacement of [3H]WIN-from DAT in rat striatum
OUTCOME MEASURE: Ki (nM)
Number only, in nM; omit the unit.

| STRUCTURE SMILES | Ki [nM] |
| --- | --- |
| O[C@H](Cc1ccccc1)CN1CCN2C[C@@H]1CC[C@H]2C(c1ccccc1)c1ccccc1 | 148 |

Could you share which Ki value was measured for "N#Cc1ccc(CN[C@H]2CC[C@@H](C(c3ccccc3)c3ccccc3)NC2)cc1" ? 11.3

Could you share which Ki value was measured for "O[C@@H](CN1CCN2C[C@@H]1CC[C@H]2C(c1ccccc1)c1ccccc1)c1ccccc1" ? 228

Could you share which Ki value was measured for "O[C@H](CN[C@H]1CC[C@@H](C(c2ccccc2)c2ccccc2)NC1)Cc1ccccc1" ? 28.9

Could you share which Ki value was measured for "O[C@@H](CN1CCN2C[C@@H]1CC[C@H]2C(c1ccccc1)c1ccccc1)c1ccc(F)cc1" ? 142

Could you share which Ki value was measured for "O[C@H](CCN1CCN2C[C@@H]1CC[C@H]2C(c1ccccc1)c1ccccc1)c1ccc(F)cc1" ? 19.9

Could you share which Ki value was measured for "COc1ccc(CN2CCN3C[C@@H]2CC[C@H]3C(c2ccccc2)c2ccccc2)cc1" ? 22.5

---

This listing pairs molecules with measured Ki.
# EXPERIMENTAL SYSTEM: Sodium-dependent dopamine transporter (Rattus norvegicus, UniProt P23977)
# ASSAY REMARKS: Inhibition of [3H]dopamine uptake in DAT in rat striatum
# Format: tissue-based

As a guide, the following entries are already answered.
| STRUCTURE SMILES | Ki |
| --- | --- |
| O[C@@H](CN[C@H]1CC[C@@H](C(c2ccccc2)c2ccccc2)NC1)Cc1ccccc1 | 0.0106 µM |
| O[C@@H](Cc1ccccc1)CN1CCN2C[C@@H]1CC[C@H]2C(c1ccccc1)c1ccccc1 | 0.0168 µM |
| O[C@@H](CCN1CCN2C[C@@H]1CC[C@H]2C(c1ccccc1)c1ccccc1)c1ccc(F)cc1 | 0.00863 µM |

Turning now to a further record.
Could you share which Ki value was measured for "O[C@H](Cc1ccccc1)CN1CCN2C[C@@H]1CC[C@H]2C(c1ccccc1)c1ccccc1" ? 0.0829 µM
